Source: patent US20230398130A1

System: ISC-enriched organoids
experimental-protocol: Primary screen, 384-well 2.5-D organoid differentiation (ENR+CD, 6 days, Target Selective Inhibitor Library, vs whole-plate median): ATP (CellTiter-Glo 3D, CTG)
details: dose 2.00 uM
Structures can show the parent of a compound that is named as a salt.
measured-property: Z.CTG (standard z score)
Answer as a number with no unit attached.

Data request: Determine reported Z.CTG (standard z score) for Clc1ccccc1CN1CCc2sccc2C1 [Ticlopidine HCl] ; test system: ISC-enriched organoids.
Data returned: −0.559

Data request: Determine reported Z.CTG (standard z score) for COc1cc2c(Nc3ccc(NC(=O)c4ccccc4)cc3)ncnc2cc1OCCCN1CCOCC1 ; test system: ISC-enriched organoids.
Data returned: 0.552

Data request: Determine reported Z.CTG (standard z score) for O=C(NCc1ccccc1)c1csc(Nc2ccncn2)n1 ; test system: ISC-enriched organoids.
Data returned: 0.746

Data request: Determine reported Z.CTG (standard z score) for COc1cc2/c(=N/c3ccc(Br)cc3F)nc[nH]c2cc1OCC1CCN(C)CC1 [Vandetanib (ZD6474)] ; test system: ISC-enriched organoids.
Data returned: −2.089

Data request: Determine reported Z.CTG (standard z score) for CCCCNc1ncc(-c2ccc(CN3CCOCC3)cn2)c(NC2CCC(O)CC2)n1 (stereo not drawn) ; test system: ISC-enriched organoids.
Data returned: 0.250

Data request: Determine reported Z.CTG (standard z score) for Cn1c(=O)cc(N2CCC[C@@H](N)C2)n(Cc2cc(F)ccc2C#N)c1=O ; test system: ISC-enriched organoids.
Data returned: 0.120

Data request: Determine reported Z.CTG (standard z score) for Cc1ccc(NC(=O)C2(c3ccc4c(c3)OC(F)(F)O4)CC2)nc1-c1cccc(C(=O)O)c1 ; test system: ISC-enriched organoids.
Data returned: −0.346

Data request: Determine reported Z.CTG (standard z score) for O=c1ncccn1[C@@H]1O[C@H](CO)[C@@H](O)[C@H]1O ; test system: ISC-enriched organoids.
Data returned: −0.213

Data request: Determine reported Z.CTG (standard z score) for CC(C)OC(=O)OCOP(=O)(CO[C@H](C)Cn1cnc2c(N)ncnc21)OCOC(=O)OC(C)C [Tenofovir Disoproxil Fumarate] ; test system: ISC-enriched organoids.
Data returned: −0.378

Data request: Determine reported Z.CTG (standard z score) for O=c1ncn2nc(Sc3ccc(F)cc3F)ccc2c1-c1c(Cl)cccc1Cl ; test system: ISC-enriched organoids.
Data returned: 0.044

Data request: Determine reported Z.CTG (standard z score) for C=CC(=O)Nc1cccc(Oc2nc(Nc3ccc(N4CCN(C)CC4)cc3OC)ncc2Cl)c1 ; test system: ISC-enriched organoids.
Data returned: 0.360

Data request: Determine reported Z.CTG (standard z score) for Cc1c(Cl)cccc1Nc1ccccc1C(=O)O ; test system: ISC-enriched organoids.
Data returned: −0.379

====

Tested on: ISC-enriched organoids
experimental-protocol: Primary screen, 384-well 2.5-D organoid differentiation (ENR+CD, 6 days, Target Selective Inhibitor Library, vs whole-plate median): ATP (CellTiter-Glo 3D, CTG)
details: primary screen, dose 10.00 uM, ENR+CD 6 days, FC vs plate median
measured-property: Dose.FC.CTG (log 2 fold change)
Give the value, in units of log 2 fold change, as a plain number.

Data request: Fill in Dose.FC.CTG for record COc1cc(F)c(C(C)C)cc1-c1ccc(C(F)(F)F)cc1CN1C(=O)O[C@H](c2cc(C(F)(F)F)cc(C(F)(F)F)c2)[C@@H]1C
Data returned: 0.031

Data request: Fill in Dose.FC.CTG for record CC(C)C[C@H](NC(=O)[C@H](Cc1ccccc1)NC(=O)c1cnccn1)B(O)O
Data returned: −1.359

Data request: Fill in Dose.FC.CTG for record C[C@H](Oc1cc(-c2cnn(C3CCNCC3)c2)cnc1N)c1c(Cl)ccc(F)c1Cl [(S)-crizotinib]
Data returned: 0.019

====

System: ISC-enriched organoids
experimental-protocol: Primary screen, 384-well 2.5-D organoid differentiation (ENR+CD, 6 days): basal lysozyme secretion (LYZ.NS)
Assay type: cell-based, murine
details: primary screen, dose 0.08 uM, standard z score of FC
Rule: Z.LYZ.NS under 1 gives not satisfied, otherwise satisfied.

Data request: Could you verify whether the entry CC(C)N(CC[C@H](c1ccccc1)c1cc(CO)ccc1O)C(C)C [5-hydroxymethyl Tolterodine (PNU 200577, 5-HMT, 5-HM)] shows Z.LYZ.NS of no less than 1?
Data returned: satisfied

Data request: Could you verify whether the entry COc1cc(N2CCC(N)CC2)ccc1Nc1ncc(Cl)c(-c2c[nH]c3ccccc23)n1 shows Z.LYZ.NS of no less than 1?
Data returned: not satisfied

Data request: Could you verify whether the entry CC(C)CCN1c2nc(Nc3cc(F)c(O)c(F)c3)ncc2N(C)C(=O)C1C (stereo not drawn) shows Z.LYZ.NS of no less than 1?
Data returned: satisfied

Data request: Could you verify whether the entry CN1CCc2cc3c(cc2[C@H]1[C@@H]1OC(=O)c2c1ccc1c2OCO1)OCO3 [(+)-Bicuculline] shows Z.LYZ.NS of no less than 1?
Data returned: not satisfied

Data request: Could you verify whether the entry COc1cc(N2CCN(C)CC2)ccc1Nc1nccc(-c2cn(C)c3cnccc23)n1 shows Z.LYZ.NS of no less than 1?
Data returned: satisfied

Data request: Could you verify whether the entry CC(=O)Nc1cccc2c1c(Sc1ccc(Cl)cc1)c(C)n2CC(=O)O shows Z.LYZ.NS of no less than 1?
Data returned: not satisfied

====

Tested on: ISC-enriched organoids
experimental-protocol: Primary screen, 384-well 2.5-D organoid differentiation (ENR+CD, 6 days): basal lysozyme secretion (LYZ.NS)
Format: cell-based, murine
details: dose 10.00 uM (4th of 4 lines per treatment; dose not printed in this part)
Text: High-throughput screening.
Labelling field: enter True if recorded SSMD.LYZ.NS_Rep (strictly standardized mean difference) is less than -0.4. Enter False if it equals or exceeds that cut-off.

Data request: Bench note: check whether O=C(O)c1ccc(N2C(=O)/C(=C\c3ccc(-c4ccc([N+](=O)[O-])cc4)o3)C=C2c2ccccc2)cc1 shows SSMD.LYZ.NS_Rep (strictly standardized mean difference) below -0.4
Data returned: False

Data request: Bench note: check whether C=C1C(=O)O[C@H]2[C@H]1CC/C(C)=C/CC[C@@]1(C)O[C@@H]21 [(−)-Parthenolide] shows SSMD.LYZ.NS_Rep (strictly standardized mean difference) below -0.4
Data returned: False

Data request: Bench note: check whether C[C@H](Oc1cc(-c2cnn(C3CCNCC3)c2)cnc1N)c1c(Cl)ccc(F)c1Cl [(S)-crizotinib] shows SSMD.LYZ.NS_Rep (strictly standardized mean difference) below -0.4
Data returned: True

Data request: Bench note: check whether CC(C)N(CC[C@H](c1ccccc1)c1cc(CO)ccc1O)C(C)C [5-hydroxymethyl Tolterodine (PNU 200577, 5-HMT, 5-HM)] shows SSMD.LYZ.NS_Rep (strictly standardized mean difference) below -0.4
Data returned: False

Data request: Bench note: check whether COc1cc2c(cc1O)CC[C@@H]1[C@@H]2CC[C@]2(C)[C@@H](O)CC[C@@H]12 shows SSMD.LYZ.NS_Rep (strictly standardized mean difference) below -0.4
Data returned: True

====

Test system: ISC-enriched organoids
experimental-protocol: Primary screen, 384-well 2.5-D organoid differentiation (ENR+CD, 6 days): carbachol-induced lysozyme secretion (LYZ.S)
Type: cell-based, murine
details: Dose 0.08 uM; ENR+CD, 6 days; FC vs plate median
measured-property: Dose.FC.LYZ.S (log 2 fold change)
Give the value, in units of log 2 fold change, as a plain number.

Data request: Determine reported Dose.FC.LYZ.S for CNC(=O)c1ccc(N2C(=S)N(c3ccc(C#N)c(C(F)(F)F)c3)C(=O)C2(C)C)cc1F [Enzalutamide (MDV3100)] ; test system: ISC-enriched organoids.
Data returned: 0.176

Data request: Determine reported Dose.FC.LYZ.S for CC(C)(C)c1nc(-c2cccc(NS(=O)(=O)c3c(F)cccc3F)c2F)c(-c2ccnc(N)n2)s1 ; test system: ISC-enriched organoids.
Data returned: 0.236

Data request: Determine reported Dose.FC.LYZ.S for c1ccc(CNc2nc(NCc3ccccc3)c3ccccc3n2)cc1 ; test system: ISC-enriched organoids.
Data returned: 0.045

Data request: Determine reported Dose.FC.LYZ.S for COc1cc2c(cc1Cc1cccc(Cl)c1F)c(=O)c(C(=O)O)cn2[C@H](CO)C(C)C ; test system: ISC-enriched organoids.
Data returned: −0.010

Data request: Determine reported Dose.FC.LYZ.S for COc1cc(Nc2ncc(F)c(Nc3ccc4c(n3)N(COP(=O)(O)O)C(=O)C(C)(C)O4)n2)cc(OC)c1OC [Fostamatinib (R788)] ; test system: ISC-enriched organoids.
Data returned: 0.235

====

Tested on: ISC-enriched organoids
experimental-protocol: Primary screen, 384-well 2.5-D organoid differentiation (ENR+CD, 6 days, Target Selective Inhibitor Library, vs whole-plate median): ATP (CellTiter-Glo 3D, CTG)
details: primary screen, dose 2.00 uM, standard z score of FC
Where a name gives a salt, the structure may show the parent alone.
Rule: Z.CTG under -0.1 gives Not fulfilled, otherwise Fulfilled.

Data request: Could you verify whether the entry CC(C)(C#N)c1cc(Cn2cncn2)cc(C(C)(C)C#N)c1 [Anastrozole] shows Z.CTG of no less than -0.1?
Data returned: Not fulfilled

Data request: Could you verify whether the entry CNC(=O)[C@H](Cc1ccccc1)NC(=O)[C@H](CC(C)C)[C@H](CSc1cccs1)C(=O)NO [Batimastat (BB-94)] shows Z.CTG of no less than -0.1?
Data returned: Not fulfilled

Data request: Could you verify whether the entry COc1c(O)cc2c(c1O)[C@@H]1O[C@H](CO)[C@@H](O)[C@H](O)[C@H]1OC2=O [Bergenin] shows Z.CTG of no less than -0.1?
Data returned: Fulfilled

Data request: Could you verify whether the entry CN(C)C(=O)c1ccc(S(=O)(=O)c2ccc(NC(=O)[C@@](C)(O)C(F)(F)F)c(Cl)c2)cc1 [AZD7545] shows Z.CTG of no less than -0.1?
Data returned: Not fulfilled

Data request: Could you verify whether the entry COc1cc(Nc2c(C#N)cnc3cc(OCCCN4CCN(C)CC4)c(OC)cc23)c(Cl)cc1Cl [Bosutinib (SKI-606), Bosutinib] shows Z.CTG of no less than -0.1?
Data returned: Not fulfilled

Data request: Could you verify whether the entry COc1cc2c(cc1O)CC[C@@H]1[C@@H]2CC[C@]2(C)[C@@H](O)CC[C@@H]12 [2-Methoxyestradiol (2-MeOE2)] shows Z.CTG of no less than -0.1?
Data returned: Fulfilled

Data request: Could you verify whether the entry COc1cc(N2CCC(N3CCN(C)CC3)CC2)ccc1Nc1ncc(Cl)c(Nc2ccccc2P(C)(C)=O)n1 [AP26113] shows Z.CTG of no less than -0.1?
Data returned: Not fulfilled

Data request: Could you verify whether the entry Cc1cc2c(C(C)C)c(O)c(O)c(C=O)c2c(O)c1-c1c(C)cc2c(C(C)C)c(O)c(O)c(C=O)c2c1O [AT101] shows Z.CTG of no less than -0.1?
Data returned: Not fulfilled

Data request: Could you verify whether the entry C[C@@H](O[C@H]1OCCN(Cc2n[nH]c(=O)[nH]2)[C@H]1c1ccc(F)cc1)c1cc(C(F)(F)F)cc(C(F)(F)F)c1 [Aprepitant] shows Z.CTG of no less than -0.1?
Data returned: Fulfilled

Data request: Could you verify whether the entry COc1ccc2c(c1)c(CC(=O)N1CCOCC1)c(C)n2C(=O)c1ccc(Cl)cc1 [BML-190] shows Z.CTG of no less than -0.1?
Data returned: Not fulfilled

Data request: Could you verify whether the entry CC[C@@H]1C(=O)N(C)c2cnc(Nc3ccc(C(=O)NC4CCN(C)CC4)cc3OC)nc2N1C1CCCC1 [BI 2536] shows Z.CTG of no less than -0.1?
Data returned: Not fulfilled

Data request: Could you verify whether the entry C/C(=C\C(=O)Nc1ccccc1C(=O)O)c1ccc2ccccc2c1 [BIBR 1532] shows Z.CTG of no less than -0.1?
Data returned: Fulfilled

Data request: Could you verify whether the entry CCN[C@H]1CN(CCCOC)S(=O)(=O)c2sc(S(N)(=O)=O)cc21 [Brinzolamide] shows Z.CTG of no less than -0.1?
Data returned: Fulfilled

Data request: Could you verify whether the entry O=C(O)c1ccc(N2C(=O)/C(=C\c3ccc(-c4ccc([N+](=O)[O-])cc4)o3)C=C2c2ccccc2)cc1 [4E1RCat] shows Z.CTG of no less than -0.1?
Data returned: Fulfilled

Data request: Could you verify whether the entry Cc1c(-c2ccc(O)cc2)n(Cc2ccc(OCCN3CCCCCC3)cc2)c2ccc(O)cc12 [Bazedoxifene HCl] shows Z.CTG of no less than -0.1?
Data returned: Not fulfilled
